measurement-target: Melanocyte-stimulating hormone receptor (Homo sapiens, UniProt Q01726)
Sequence (Q01726 whole entry, looked up): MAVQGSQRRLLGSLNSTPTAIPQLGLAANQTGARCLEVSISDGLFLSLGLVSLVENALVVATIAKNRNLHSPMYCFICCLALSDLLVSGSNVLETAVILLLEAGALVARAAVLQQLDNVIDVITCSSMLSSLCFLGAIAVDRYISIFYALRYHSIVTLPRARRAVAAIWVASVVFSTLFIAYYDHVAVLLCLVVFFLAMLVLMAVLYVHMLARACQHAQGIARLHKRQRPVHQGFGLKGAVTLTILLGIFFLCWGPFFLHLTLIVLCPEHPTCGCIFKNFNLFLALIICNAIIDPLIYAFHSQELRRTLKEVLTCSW
experiment-notes: Displacement of [125I]-NDP-alpha-MSH from human MC1R expressed in HEK293 cells at 10 uM after 40 mins by Wallac 1470 gamma counting relative to Ac-Nle-c[Asp-His-D-Phe-Arg-Trp-Lys]-NH2
Format: cell-based
Positions of bridges follow the written chain, without caps; N, C: chain ends. Non-standard residues stand in square brackets, D forms with d. Residues, ends and D or L forms follow the SMILES beside them.
measured-metric: Activity (%)
Give just the number in %; leave the unit off.

| compound | unit-abbreviation | Activity |
| --- | --- | --- |
| C[C@@H]1NC(=O)[C@H](CC(N)=O)NC(=O)[C@@H](Cc2ccccc2)NC(=O)[C@H](Cc2c[nH]c3ccccc23)NC(=O)[C@H](CCCNC(=N)N)NC(=O)CC[C@@H](C(N)=O)NC(=O)[C@H](Cc2ccccc2)NC1=O (RW[dF]NAFE-NH2; lactam N-7) | % | 0 |
| CC(=O)N[C@H]1CC(=O)NCCCC[C@@H](C(N)=O)NC(=O)[C@@H](CCCNC(=N)N)NC(=O)[C@H](Cc2ccccc2)NC(=O)[C@H](Cc2c[nH]c3ccccc23)NC(=O)[C@H](CCCNC(=N)N)NC1=O (Ac-DRWF[dR]K-NH2; lactam 1-6) | % | 0 |

(Q) API: value(readout= Activity, system= Melanocyte-stimulating hormone receptor (Homo sapiens, UniProt Q01726), query= C[C@@H]1NC(=O)[C@H](CC(N)=O)NC(=O)[C@H](Cc2ccccc2)NC(=O)[C@H](Cc2c[nH]c3ccccc23)NC(=O)[C@H](CCCNC(=N)N)NC(=O)CC[C@@H](C(N)=O)NC(=O)[C@H](Cc2ccccc2)NC1=O (RWFNAFE-NH2; lactam N-7) )
(A) 0

Values from ChEMBL document CHEMBL1773033
